B1: PBXIP1 (parent)
chain: FGEDGIFRHDRLRFRDFVDALEDS

# Variants of: B1
# ASSAY OVERVIEW: protein stability index of a GFP-peptide fusion (GPS, HEK-293T) (PSI 1-6); higher = more stable;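 also: lentivirally expressed fusions sorted by FACS into six bins by GFP to DsRed ratio, PSI derived from sequencing read proportions per bin multiplied by bin number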
# CONDITION NOTES: c terminus: a fixed tail appended
Label rule, in plain words: protein stability index of 3 and up is rule met, under 3 is rule not met.

Exam item: decide whether the reported protein stability index for `R8D` is at least 3.
rule met

Exam item: decide whether the reported protein stability index for `S24H` is at least 3.
rule not met

Exam item: decide whether the reported protein stability index for `R15G` is at least 3.
rule met

Exam item: decide whether the reported protein stability index for `V18L` is at least 3.
rule met

Exam item: decide whether the reported protein stability index for `A20K` is at least 3.
rule met

Exam item: decide whether the reported protein stability index for `D10Q` is at least 3.
rule not met

Exam item: decide whether the reported protein stability index for `D23I` is at least 3.
rule not met

Exam item: decide whether the reported protein stability index for `G2P` is at least 3.
rule not met

Exam item: decide whether the reported protein stability index for `L12W` is at least 3.
rule not met

Exam item: decide whether the reported protein stability index for `G5E` is at least 3.
rule met

Exam item: decide whether the reported protein stability index for `F1I` is at least 3.
rule met

Exam item: decide whether the reported protein stability index for `E22M` is at least 3.
rule not met

Exam item: decide whether the reported protein stability index for `D23E` is at least 3.
rule not met

Exam item: decide whether the reported protein stability index for `R11E` is at least 3.
rule met

Exam item: decide whether the reported protein stability index for `R13C` is at least 3.
rule not met

Exam item: decide whether the reported protein stability index for `R13Y` is at least 3.
rule not met

Exam item: decide whether the reported protein stability index for `D23Q` is at least 3.
rule not met

Exam item: decide whether the reported protein stability index for `G5H` is at least 3.
rule met

Exam item: decide whether the reported protein stability index for `F14R` is at least 3.
rule met

Data origin: the supplement of paper PMC10567573
